System: Lolium perenne (LOLPE)
EXPERIMENT_NOTES: Glasshouse assay for herbicidal activity (pre- and post-emergence), percentage phytotoxicity
Format: in vivo
CONDITION_DESCRIPTION: Lolium perenne, pre-emergence, 480 h, 250 g/ha; pre-emergence; 20 DAA; visual assessment (100%=total damage, 0%=no damage); read-out: Pre-emergence herbicidal activity (percentage phytotoxicity) LOLPE PRE
I'd appreciate it if you marked entries Criterion met when pest or weed control at 250 g/ha is lower than 90% and Criterion not met when it is not.

compound="Cc1cc(-c2ncc(Cl)cc2C#N)cc(C)c1C1C(=O)CC(CC(=O)NC(C)(C)C)C1=O (stereo not drawn)" category_label="Criterion met"
compound="CC#Cc1cc(C)c(C2C(=O)CC(CC(=O)N3CCOCC3)C2=O)c(C)c1 (stereo not drawn)" category_label="Criterion not met"
compound="Cc1cc(C)c(C2C(=O)CC(CC(=O)NCC3(C)CC3(Cl)Cl)C2=O)c(C)c1 (stereo not drawn)" category_label="Criterion met"
compound="CC#Cc1cc(C)c(C2C(=O)CC(CC(=O)NCCCOC)C2=O)c(C)c1 (stereo not drawn)" category_label="Criterion not met"
compound="C=C(C)CNC(=O)CC1CC(=O)C(c2c(C)cc(C)cc2C)C1=O (stereo not drawn)" category_label="Criterion not met"
compound="CONC(=O)CC1CC(=O)C(c2c(C)cc(C)cc2C)C1=O (stereo not drawn)" category_label="Criterion met"
compound="Cc1cc(C)c(C2C(=O)CC(CC(=O)NCc3cccc(F)c3)C2=O)c(C)c1 (stereo not drawn)" category_label="Criterion not met"
compound="Cc1cc(OCC(F)(F)F)cc(C)c1C1C(=O)CC(CC(N)=O)C1=O (stereo not drawn)" category_label="Criterion met"
compound="C/C=C/CNC(=O)CC1CC(=O)C(c2c(C)cc(-c3ncc(Cl)cc3F)cc2C)C1=O (stereo not drawn)" category_label="Criterion not met"
compound="COc1ccc(NC(=O)CC2CC(=O)C(c3c(C)cc(C)cc3C)C2=O)cc1OC (stereo not drawn)" category_label="Criterion met"
compound="C#CC(C)(C)NC(=O)CC1CC(=O)C(c2c(C)cc(Br)cc2C)C1=O (stereo not drawn)" category_label="Criterion met"
compound="Cc1cc(-c2ncc(F)cn2)cc(C)c1C1C(=O)CC(CC(=O)NC(C)(C)C)C1=O (stereo not drawn)" category_label="Criterion not met"
compound="C=CCNC(=O)CC1CC(=O)C(c2c(C)cc(C#CC)cc2C)C1=O (stereo not drawn)" category_label="Criterion not met"
compound="Cc1cc(C)c(C2C(=O)CC(CC(=O)NC/C=C/Cl)C2=O)c(C)c1 (stereo not drawn)" category_label="Criterion not met"
compound="Cc1cc(-c2ncc(C#N)cc2F)cc(C)c1C1C(=O)CC(CC(=O)NC(C)(C)C)C1=O (stereo not drawn)" category_label="Criterion met"
compound="Cc1cc(-c2ncc(Cl)cc2F)cc(C)c1C1C(=O)CC(CC(=O)NC2CCCC2)C1=O (stereo not drawn)" category_label="Criterion not met"
compound="CCCN(CC1CC1)C(=O)CC1CC(=O)C(c2c(C)cc(C)cc2C)C1=O (stereo not drawn)" category_label="Criterion met"
compound="Cc1cc(-c2ncc(F)cc2F)cc(C)c1C1C(=O)CC(CC(N)=O)C1=O (stereo not drawn)" category_label="Criterion met"
compound="CC(C)=CCNC(=O)CC1CC(=O)C(c2c(C)cc(C)cc2C)C1=O (stereo not drawn)" category_label="Criterion not met"
compound="Cc1cc(-c2ncccc2Cl)cc(C)c1C1C(=O)CC(CC(=O)NC(C)(C)C)C1=O (stereo not drawn)" category_label="Criterion met"
compound="Cc1cc(-n2cc(Cl)c(C)n2)cc(C)c1C1C(=O)CC(CC(=O)NC(C)(C)C)C1=O (stereo not drawn)" category_label="Criterion met"
compound="Cc1cc(Br)cc(C)c1C1C(=O)CC(CC(=O)NCc2cccc(F)c2)C1=O (stereo not drawn)" category_label="Criterion met"
